Tested on: HT-1080 cells
Assay: Cell viability assay in HT-1080 cells, cotreatment with cell-death inhibitors
Format: cell-based, human
Details: Homo sapiens, HT-1080, 48 h, cotreated with ZVAD (45 μM), read-out: EC50 (μM) of TKD1079 + inhbitor
result-type: EC50 (µM)
Give bare numbers, in µM.

The measured EC50 associated with O=S(=O)(NC1CC2CCC1C2)c1ccc2c(c1)C(=NO)c1cc(S(=O)(=O)NC3CC4CCC3C4)ccc1-2 (stereo not shown) [TKD1079] reads 0.051

====

Tested on: HT-1080 cells
Test: Cell viability assay (Alamar Blue), cytotoxicity in HT-1080 cells
Type: cell-based, human
Details: Homo sapiens, HT-1080, HT-1080 cells, compound alone; read-out: EC 50
result-type: EC50 (µM)
Give bare numbers, in µM.

// known answers, use as guide
CC(C)CNS(=O)(=O)c1ccc2c(c1)C(=NO)c1cc(S(=O)(=O)NCC(C)C)ccc1-2 4.35
N#CC1c2cc(S(=O)(=O)NC3CCCCC3)ccc2-c2ccc(S(=O)(=O)NC3CCCCC3)cc21 13.4

Kindly review the next compound as well.
For record C#CC1(O)c2cc(S(=O)(=O)NC3CCCCC3)ccc2-c2ccc(S(=O)(=O)NC3CCCCC3)cc21 the listed EC50 is 4.59
